B1: Twister Ribozyme (parent)
chain: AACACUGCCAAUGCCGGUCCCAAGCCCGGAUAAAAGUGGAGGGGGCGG

Variants of: B1
Experiment: self-cleavage, relative activity (ratio to wild type); higher = more cleavage; co-transcriptional
experimental endpoint: self-cleavage
Please state the value as a number alone, without comment.

> print(dat)
   sequence.change  experimental.endpoint  value.observed
1        U18C G36A          self-cleavage           0.158
2        C21U A40C          self-cleavage           0.109
3         C3G C15G          self-cleavage           0.133
4        A23G C25G          self-cleavage          0.0343
5        C15A G48C          self-cleavage           0.715

## Input Name the recorded self-cleavage for G24C G47A .
## Output 0.0965

## Input Name the recorded self-cleavage for A2C G44A .
## Output 0.107

## Input Name the recorded self-cleavage for C15G C46G .
## Output 0.111

## Input Name the recorded self-cleavage for A23C G41C .
## Output 0.112

## Input Name the recorded self-cleavage for U6C G43C .
## Output 0.128
